molecular target: SMARCA2 (Homo sapiens, UniProt P51531); construct: endogenous in cells; experiment: SMARCA2 Cellular Degradation Assay (Western blot analysis on Jess platform); assay type: cell-based; settings: ratio DC50 SMARCA4 / DC50 SMARCA2
Sequence (P51531 whole entry, species assumed): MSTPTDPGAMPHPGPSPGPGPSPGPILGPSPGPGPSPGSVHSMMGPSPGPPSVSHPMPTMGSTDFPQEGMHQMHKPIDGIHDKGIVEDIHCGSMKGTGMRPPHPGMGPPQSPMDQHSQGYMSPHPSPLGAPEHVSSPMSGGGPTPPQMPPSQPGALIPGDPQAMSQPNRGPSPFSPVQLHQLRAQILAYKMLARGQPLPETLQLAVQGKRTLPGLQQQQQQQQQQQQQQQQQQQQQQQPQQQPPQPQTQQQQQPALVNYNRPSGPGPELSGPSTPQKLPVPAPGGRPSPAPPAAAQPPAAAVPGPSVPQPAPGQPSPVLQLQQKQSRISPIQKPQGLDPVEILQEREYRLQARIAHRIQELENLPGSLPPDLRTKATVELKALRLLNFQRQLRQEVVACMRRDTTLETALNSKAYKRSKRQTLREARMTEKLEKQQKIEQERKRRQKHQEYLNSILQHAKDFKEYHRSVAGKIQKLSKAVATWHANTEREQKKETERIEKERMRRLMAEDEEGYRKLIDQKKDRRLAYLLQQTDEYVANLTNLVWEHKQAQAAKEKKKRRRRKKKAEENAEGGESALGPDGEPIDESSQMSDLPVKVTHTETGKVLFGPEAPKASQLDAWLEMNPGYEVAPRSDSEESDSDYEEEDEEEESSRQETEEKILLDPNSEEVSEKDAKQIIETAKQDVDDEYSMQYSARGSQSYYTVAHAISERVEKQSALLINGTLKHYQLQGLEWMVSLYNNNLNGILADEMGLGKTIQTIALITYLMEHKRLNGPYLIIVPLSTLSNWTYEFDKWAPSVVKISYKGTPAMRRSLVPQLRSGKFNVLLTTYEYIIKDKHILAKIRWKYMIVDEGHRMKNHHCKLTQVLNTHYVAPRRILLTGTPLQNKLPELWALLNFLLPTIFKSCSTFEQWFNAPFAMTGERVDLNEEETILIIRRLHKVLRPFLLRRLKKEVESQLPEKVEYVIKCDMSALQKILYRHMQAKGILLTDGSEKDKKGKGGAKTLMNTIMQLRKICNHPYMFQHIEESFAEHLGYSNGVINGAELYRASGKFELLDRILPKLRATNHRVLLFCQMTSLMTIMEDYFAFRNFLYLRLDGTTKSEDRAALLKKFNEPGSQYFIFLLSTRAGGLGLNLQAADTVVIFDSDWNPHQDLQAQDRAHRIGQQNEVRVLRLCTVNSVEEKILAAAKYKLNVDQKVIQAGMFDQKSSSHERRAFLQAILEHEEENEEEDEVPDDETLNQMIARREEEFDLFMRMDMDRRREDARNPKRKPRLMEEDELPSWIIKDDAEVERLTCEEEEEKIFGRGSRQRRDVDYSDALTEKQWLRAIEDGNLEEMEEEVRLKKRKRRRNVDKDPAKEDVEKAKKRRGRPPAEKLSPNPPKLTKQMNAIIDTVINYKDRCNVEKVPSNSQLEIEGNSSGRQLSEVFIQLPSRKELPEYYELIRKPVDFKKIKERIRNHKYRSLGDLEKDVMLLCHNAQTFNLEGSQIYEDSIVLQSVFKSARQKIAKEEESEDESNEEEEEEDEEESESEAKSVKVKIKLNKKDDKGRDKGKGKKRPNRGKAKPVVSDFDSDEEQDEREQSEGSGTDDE
Is Fold Selectivity SMARCA4/2 at least 500? Then Fulfilled. If not, Not fulfilled.

The examples below pair each entry with its known result.
O=C1CC[C@H](c2ccc(N3CCC(CN4CCCN(C(=O)C5(c6ccccc6)CCN(c6cnnc(-c7ccccc7O)c6)CC5)CC4)CC3)cc2)C(=O)N1 [Example 46] = Not fulfilled
CC1(NC(=O)C2(c3ccccc3)CCN(c3cnnc(-c4ccccc4O)c3)CC2)CCN(C(=O)CN2CCC(c3ccc(N[C@@H]4CCC(=O)NC4=O)cc3)CC2)CC1 (racemic) [Example 86] = Not fulfilled
CN(C(=O)C1(OC2CC2)CCN(c2cnnc(-c3ccccc3O)c2)CC1)C1CCN(CC2CCN(c3ccc([C@H]4CCC(=O)NC4=O)cc3)CC2)CC1 [Example 114] = Fulfilled
O=C1CCC(c2ccc(N3CCC(CCN4CC5(CCCN(C(=O)C6(c7ccccc7)CCN(c7cnnc(-c8ccccc8O)c7)CC6)C5)C4)CC3)cc2)C(=O)N1 (racemic) [Example 167] = Not fulfilled

Alright, here's another compound for you.
Identify whether the reported Fold Selectivity SMARCA4/2 of the following compound is 500 or greater: COc1cccc(C2(C(=O)NC3CCN(CC4CCN(c5ccc([C@H]6CCC(=O)NC6=O)cc5)CC4)C4(CCC4)C3)CCN(c3cnnc(-c4ccccc4O)c3)CC2)c1 (some centres unmarked) [Example 169]
Not fulfilled

The measured values listed here are drawn from patent US20250051344A1.
